The measured values listed here are drawn from ChEMBL document CHEMBL1147932.

test system: ECV-304; experiment: Protection of hydrogen peroxide-induced damage in ECV304 cells; type: functional, cell-based; conditions: Homo sapiens
measurementType: EC50 (µM)
Give bare numbers, in µM.

Cc1nc(C)c(CN2CCN(Cc3cccc(Cl)c3)CC2)nc1C = 503

For every item below, please supply its EC50.
1. Cc1nc(C)c(CN2CCN(Cc3ccc(C(C)(C)C)cc3)CC2)nc1C
2. Cc1nc(C)c(CN2CCN(C(c3ccccc3)c3ccc(Cl)cc3)CC2)nc1C (stereo not drawn)
3. Cc1nc(C)c(CN2CCN(C(c3ccccc3)c3ccccc3)CC2)nc1C
4. Cc1nc(C)c(CN2CCN(CCc3ccccc3)CC2)nc1C
5. Cc1nc(C)c(CN2CCN(Cc3ccccc3Cl)CC2)nc1C
6. Cc1nc(C)c(CN2CCN(Cc3ccc(C#N)cc3)CC2)nc1C
7. Cc1nc(C)c(CN2CCN(Cc3nc(C)c(C)nc3C)CC2)nc1C
8. Cc1nc(C)c(CN2CCN(Cc3ccc(Br)cc3)CC2)nc1C

### Response
431
253
218
542
405
417
311
845

====

What Activity was measured for each of the following?
tested on: Plasma; assay: Inhibition of ADP-induced platelet aggregation in rabbit plasma at 200 uM; assay type: functional, Oryctolagus cuniculus; set-up: scale not given: the % may be the effect or the level left
One number for each entry, in %.

The following molecules have reported results that may help.
Cc1nc(C)c(CN2CCN(Cc3ccc([N+](=O)[O-])cc3)CC2)nc1C = 14.22
Cc1nc(C)c(CN2CCN(Cc3ccccc3)CC2)nc1C = 9.06
Cc1nc(C)c(CN2CCN(Cc3ccc(C(C)(C)C)cc3)CC2)nc1C = 15.32
Cc1nc(C)c(CN2CCN(Cc3nc(C)c(C)nc3C)CC2)nc1C = 19.36
Cc1nc(C)c(CN2CCN(Cc3ccc(Cl)cc3)CC2)nc1C = 12.31

List Activity for every entry below, keeping the order given.
1. Cc1ccc(CN2CCN(Cc3nc(C)c(C)nc3C)CC2)cc1
2. Cc1nc(C)c(CN2CCN(Cc3ccc(Cl)cc3Cl)CC2)nc1C
3. Cc1nc(C)c(CN2CCN(C(c3ccccc3)c3ccc(Cl)cc3)CC2)nc1C (stereo not drawn)
4. Cc1nc(C)c(CN2CCN(C/C=C/c3ccccc3)CC2)nc1C
5. Cc1nc(C)c(C)nc1C [LIGUSTRAZINE]
6. Cc1nc(C)c(CN2CCN(Cc3cccc(Cl)c3)CC2)nc1C

### Response
1: 17.69; 2: 5.7; 3: 5.19; 4: 8.36; 5: 7.86; 6: 10.56

====

system: ECV-304; assay: Protection of hydrogen peroxide-induced damage in ECV304 cells; type: functional, cell-based; conditions: Homo sapiens
Classify: label 1 when EC50 is strictly less than 400 µM; label 0 when EC50 is not.

### Prompt # check: EC50 < 400 µM for Cc1nc(C)c(CN2CCN(C(c3ccc(F)cc3)c3ccc(F)cc3)CC2)nc1C
### Response label 1

### Prompt Strictly below 400 µM in EC50? Cc1nc(C)c(CN2CCN(Cc3ccc(Cl)cc3)CC2)nc1C
### Response label 1

### Prompt Answer whether the molecule Cc1nc(C)c(CN2CCN(Cc3ccccc3)CC2)nc1C has EC50 strictly less than 400 µM
### Response label 1

### Prompt Lab note: EC50 threshold 400 µM. Does this molecule come in strictly under it? Cc1ccc(CN2CCN(Cc3nc(C)c(C)nc3C)CC2)cc1
### Response label 1

### Prompt Would you kindly verify if EC50 of Cc1nc(C)c(CN2CCN(Cc3ccc([N+](=O)[O-])cc3)CC2)nc1C is strictly less than 400 µM?
### Response label 1

### Prompt In the record for Cc1nc(C)c(CN2CCN(C/C=C/c3ccccc3)CC2)nc1C , is EC50 less than 400 µM?
### Response label 0

### Prompt Lab log: compare recorded EC50 with 400 µM; is it strictly lower for Cc1nc(C)c(C)nc1C ?
### Response label 0

### Prompt In the record for Cc1nc(C)c(CN2CCN(Cc3ccc(Cl)cc3Cl)CC2)nc1C , is EC50 less than 400 µM?
### Response label 0
